System: G-protein heterotrimer (Gα2-CFP:Gβ-YFP) linked to cAMP chemoattractant receptors
Experiment: FRET loss in living α2-CFP:β-YFP cells (fluorimeter)
Type: cell-based, D. discoideum
Conditions: read-out: EC50 for decrease of the FRET signal
readout_kind: EC50

# get_value(readout='EC50', item= Nc1ncnc2c1ncn2C1OC2COP(=O)(O)OC2C1O (stereo not shown) [cAMP, cyclic adenosine 3′, 5′ phosphate] )
~10 nM

From: patent US7691564B2
